- measurement-protocol: NCI Yeast Anticancer Drug Screen. Data for the rad50 strain (AID 155);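 further: 0% = growth of vehicle-only cultures of the same strain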
- details: S. cerevisiae rad50 strain growth inhibition; at 50.0 µM; active compounds read high
Compounds without any hit were thinned out: in the full panel of roughly 79,000, 15% have a hit.
Kindly supply the reported growth inhibition values for the records listed here.
Numbers only, in %.

Record growth inhibition for all entries; do not skip any.
1. Cc1cc(=O)[nH]c(Nc2nc3ccccc3[nH]2)n1
2. [Cl][Ce]([Cl])[Cl]

1: 1.1; 2: 28.1

Record growth inhibition for all entries; do not skip any.
1. O=C(Cc1ccccc1)c1c[nH]c2c(O)ccc(O)c12
2. CCN(CC)CCn1ncc2ccc3c(c(=O)c4cccnc4n3CCN(CC)CC)c21
3. O=C1CC=C2C3CC4N(CCC45c4ccccc4N1C25)C/C3=C\CBr (configuration not stated)
4. O=C1NCC2(CCN(CC3COc4ccccc4O3)CC2)N1c1ccccc1 (configuration not stated)
5. C#CCOC(=O)c1ccccc1O
6. CC(C)(C)OC(=O)NC(CC(N)=O)C(=O)O (configuration not stated)

1: -15.1; 2: 9; 3: -8.45; 4: -23.3; 5: 15.2; 6: 23.1

Take each entry in turn and give its growth inhibition.
1. C=C1SC(=Nc2c(C)cccc2Cl)N(C(=O)c2sc3ccccc3c2Cl)C12CCCCC2
2. CCCC(C(=O)O)C(O)(CC(=O)O)C(=O)O (configuration not stated)
3. COC(CN1C(=O)CSC1=S)OC
4. CC(=O)OC(C)C(=O)C1c2cccc(O)c2C(=O)c2c(O)cc(C)cc21 (configuration not stated)

[8.05, 18.6, 10.8, 35.6]

* * *

- measurement-protocol: NCI Yeast Anticancer Drug Screen. Data for the mlh1 rad18 strain (AID 175)
- details: S. cerevisiae mlh1 rad18 strain growth inhibition; at 50.0 µM
This is part of a sample that, as a whole, favours compounds with a hit. Of some 79,000 tested, about 15% had one in any assay. Activity calls are given as the source filed them. No stated cut-off is given here; in the data, active means growth inhibition above about 70%; inactive means the rest.
Entry note: the call must match one of 1 for active, -1 for inactive

Use the examples below as a reference point.
{"compound": "O/N=C1/C(=C/c2ccc(F)cc2)CCCC1C(NO)c1ccc(F)cc1 (configuration not stated)", "class-name": -1}
{"compound": "O=C(O)c1ccccc1-c1ccccc1C(=O)O", "class-name": -1}
{"compound": "CCCC(=O)Oc1ccc(C)cc1C(C)(C)C", "class-name": -1}
{"compound": "Cn1nnc(/N=C/c2ccccc2)n1", "class-name": -1}
{"compound": "CC(C)NCC1CCCO1 (configuration not stated)", "class-name": -1}
{"compound": "CCCCCCC(=O)/C=C/c1ccc(Cl)cc1", "class-name": -1}

# fetch the recorded call for `N#C/C(C(=N)c1ccccc1)=C1\SS/C(=C(\C#N)C(=N)c2ccccc2)S1` here
-1

Lab log entry: `CCCCCCc1ccc2c3cccc4cccc(c5cccc1c52)c43` — outcome as called in the assay?
-1

# outcome recorded in this test, key = CS(=O)(=O)CC(O)(c1ccc(Cl)cc1)c1ccccn1 (configuration not stated)
-1

Can you look up the reported call for `O=C(c1ccccc1O)N1CCCCC1` for me?
-1

# fetch the recorded call for `CCCCCCN(CCCCCC)C1=CC(=O)C(=O)c2ccccc21` here
-1

# fetch the recorded call for `CN1CCN(C2=NCCO2)CC1` here
-1

What was the test verdict on `C[N+](C)(CCOc1ccccc1)Cc1ccccc1` ?
-1

Hey, what did the test say about `COc1ccc2cc(C(=O)CCC(=O)O)ccc2c1` ?
-1

Would you mind telling me which call this test gave `CO/C=C1/CCc2c(ccc3cc(OC)ccc23)C1=O` ?
-1

Please indicate how the test categorized `Cn1cc(Cc2ccc(-c3ccccc3)cc2)c(=O)c(Cc2ccc(-c3ccccc3)cc2)c1` .
-1

Recorded call for `[CH3][Ga]([CH3])[O]c1ccccc1C=O` ?
-1
